Cited source: paper PMC10349056

Biological target: T1, FGFR2 kinase domain, phosphorylation state pY5 (UniProt P21802-3 465-764, Y734F (worked out from the printed order of phosphorylation), phosphotyrosine at 657, 587, 467, 589 and 658)
T1 construct: FGFR2 (IIIb isoform) kinase domain, residues 465-764; numbers count on: FGFR2IIIb (C1 isoform, 822 residues); also called KD^pY5; source: E. coli BL21(DE3), purified (Talon, Superdex 75)
T1 sequence (P21802 464-763 Y733F): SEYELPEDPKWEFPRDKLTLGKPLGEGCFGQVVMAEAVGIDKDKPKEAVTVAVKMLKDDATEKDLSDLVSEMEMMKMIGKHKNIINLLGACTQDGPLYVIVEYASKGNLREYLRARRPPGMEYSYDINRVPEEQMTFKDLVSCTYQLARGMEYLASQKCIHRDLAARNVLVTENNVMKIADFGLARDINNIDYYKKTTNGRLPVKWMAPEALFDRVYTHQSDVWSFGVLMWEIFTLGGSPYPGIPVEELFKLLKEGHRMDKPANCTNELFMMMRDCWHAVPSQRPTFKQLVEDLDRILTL
Assay: MST; JM labelled with Atto 488, serial dilutions of KD titrated, 25 °C; 20 mM HEPES, 150 mM NaCl, 1 mM TCEP, 0.01% Tween 20, pH 7.5; the text calls the constant of KD^pY1 apparent (Kd,app)
Conditions: both partners purified
Where no end group is shown, it is not given here.
measure: Kd

binder	observed.result
FGFR2 juxtamembrane region (407-462), labelled with Atto 488 (peptide, UniProt P21802-3 407-462, looked up, also: labelled with Atto 488, FGFR2 (IIIb isoform) juxtamembrane region, residues 407-462; numbers count on: FGFR2IIIb (C1 isoform, 822 residues); also called JM; 407Juxtamembrane region462; source: synthetic peptide, bought: Genscript) KPDFSSQPAVHKLTKRIPLRRQVTVSAESSSSMNSNTPLVRITTRLSSTADTPMLA	22.5 µM
